# target-entity: 17-beta-hydroxysteroid dehydrogenase type 2 (Homo sapiens, UniProt P37059)
# Sequence (P37059 whole entry): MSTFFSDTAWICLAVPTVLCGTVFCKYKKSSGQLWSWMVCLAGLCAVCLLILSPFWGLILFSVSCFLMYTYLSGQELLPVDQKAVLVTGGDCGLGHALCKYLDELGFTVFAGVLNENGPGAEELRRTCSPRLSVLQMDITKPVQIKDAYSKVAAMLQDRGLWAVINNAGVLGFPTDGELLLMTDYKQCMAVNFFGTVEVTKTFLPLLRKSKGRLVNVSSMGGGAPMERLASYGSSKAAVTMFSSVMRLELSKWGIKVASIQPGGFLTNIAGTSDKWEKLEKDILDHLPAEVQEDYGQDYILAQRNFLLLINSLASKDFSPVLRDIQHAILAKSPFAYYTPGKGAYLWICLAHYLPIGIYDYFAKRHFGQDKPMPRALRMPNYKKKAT
# assay-method-text: Inhibitory concentration against 17 beta hydroxysteroid dehydrogenase type 2 (type II 17-beta-HSD II)
We begin with a simple list: items and their reported pIC50.
# log scale: pIC50 equals minus log10 of the concentration in mol/L

• CN1C(=O)C[C@H](c2ccccc2)[C@@H]1Cc1cccc(Cl)c1 = 5.66
• CN1C(=O)C[C@H](c2ccccc2)[C@@H]1[C@@H](O)c1cccc(-c2ccc(F)cc2)c1 = 5.56
• COc1cccc(C#C[C@H](O)[C@H]2[C@@H](c3ccccc3)CC(=O)N2C)c1 = 5.96

Q: Dear colleague, I am looking for the recorded pIC50 of the following compound: Cc1ccc([C@H](O)[C@H]2[C@@H](c3ccccc3)CC(=O)N2C)cc1
Result: 5.74

Q: // repeat for CN1C(=O)C[C@H](c2ccc(O)cc2)[C@@H]1[C@@H](O)c1ccc(-c2ccccc2)s1 and report
Result: 6.66

Q: Follow-up entry: CN1C(=O)C[C@H](c2ccccc2)[C@@H]1[C@@H](O)C#Cc1ccc(F)cc1
Result: 6.32

Q: Now the same for CN1C(=O)C[C@H](c2ccccc2)[C@@H]1[C@@H](O)c1coc2ccccc12
Result: 5.94

Q: Follow-up item: CN1C(=O)C[C@H](c2ccccc2)[C@@H]1[C@@H](O)c1ccc(Cl)c(Cl)c1
Result: 6.36

Q: Next up: CN1C(=O)C[C@H](c2ccccc2)[C@@H]1[C@@H](O)CCc1ccccc1
Result: 5.74

Q: Try CN(C)c1ccc([C@H](O)[C@H]2[C@@H](c3ccccc3)CC(=O)N2C)cc1 next.
Result: 5.78

Q: Cc1ccc([C@H](O)[C@H]2[C@@H](c3ccccc3)CC(=O)N2C)s1 ?
Result: 6.25
